molecular target: progesterone receptor (Oryctolagus cuniculus, UniProt P06186); construct: On the fifth day the uterus was excised, weighed and homogenized; from tissue; assay: Progesterone receptor assay: competition with [^3 H]R5020 binding; parameters: species or system rabbit; conditions: R5020, footnote *Kd; rabbit uterine cytosol; mean±SEM (5 experiments)
Sequence (P06186 whole entry): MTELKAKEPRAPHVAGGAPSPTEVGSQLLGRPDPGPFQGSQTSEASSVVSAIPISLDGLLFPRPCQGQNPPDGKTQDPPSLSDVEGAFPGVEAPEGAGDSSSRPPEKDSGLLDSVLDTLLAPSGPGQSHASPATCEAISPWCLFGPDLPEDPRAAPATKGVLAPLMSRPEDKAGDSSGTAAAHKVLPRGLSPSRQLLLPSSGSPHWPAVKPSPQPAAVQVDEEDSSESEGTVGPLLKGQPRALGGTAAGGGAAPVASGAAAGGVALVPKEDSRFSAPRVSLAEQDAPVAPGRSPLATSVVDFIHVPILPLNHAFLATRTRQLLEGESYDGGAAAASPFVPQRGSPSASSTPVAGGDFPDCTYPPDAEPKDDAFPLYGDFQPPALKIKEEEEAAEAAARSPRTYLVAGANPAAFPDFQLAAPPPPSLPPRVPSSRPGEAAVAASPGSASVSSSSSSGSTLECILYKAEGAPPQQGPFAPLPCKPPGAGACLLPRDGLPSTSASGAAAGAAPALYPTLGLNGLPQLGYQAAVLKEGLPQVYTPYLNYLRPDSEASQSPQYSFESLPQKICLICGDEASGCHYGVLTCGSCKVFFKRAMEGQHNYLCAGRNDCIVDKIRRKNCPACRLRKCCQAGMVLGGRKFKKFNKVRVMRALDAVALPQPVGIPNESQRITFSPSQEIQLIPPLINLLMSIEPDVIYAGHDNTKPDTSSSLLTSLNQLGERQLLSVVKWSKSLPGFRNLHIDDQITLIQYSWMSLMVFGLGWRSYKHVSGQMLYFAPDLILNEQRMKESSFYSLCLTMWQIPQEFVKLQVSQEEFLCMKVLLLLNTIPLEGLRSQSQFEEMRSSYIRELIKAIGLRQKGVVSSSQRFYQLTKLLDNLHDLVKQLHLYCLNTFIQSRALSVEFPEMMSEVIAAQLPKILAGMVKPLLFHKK
Test readout: Kd (nM)
Give bare numbers, in nM.

Data request: # input compound: CCC(=O)[C@@]1(C)CC[C@H]2[C@@H]3CCC4=CC(=O)CCC4=C3CC[C@@]21C ; wanted: its Kd
Data returned: 1.05

The reported numbers originate from patent US4780420A.
